TARGET SYSTEM: human PAH with the R408W mutation (Homo sapiens, UniProt P00439, R408W)
Construct: expressed in transfected cells
METHOD: Cell Based Phenylalanine Flux Assay
EXPERIMENTAL CONDITIONS: A375 cells expressing human R408W PAH; 24 hrs compound incubation; 13C-Tyrosine by LC-MS; average where tested multiple times; read-out: AC50

CHEMICAL STRING: O=C(c1nnc(-c2ccn(C(F)(F)F)n2)o1)N1CCc2[nH]cnc2[C@@H]1c1cc2c(C(F)F)cccn2n1
AC50: 1000 to 5000 nM

CHEMICAL STRING: C[C@H](O)c1nc(C(F)F)c(C(=O)N2CCc3[nH]cnc3[C@@H]2c2cc3ccccn3n2)o1
AC50: > 5000 nM

CHEMICAL STRING: FC(F)c1cccn2nc([C@@H]3c4nc[nH]c4CCN3c3nnc(C4CC4)o3)cc12
AC50: 500 to 1000 nM

CHEMICAL STRING: COc1cccn2nc([C@@H]3c4nc[nH]c4CCN3C(=O)c3ccnn3-c3ccccn3)cc12
AC50: < 500 nM

CHEMICAL STRING: COc1cccn2nc([C@@H]3c4nc[nH]c4CCN3C(=O)c3cnco3)cc12
AC50: 500 to 1000 nM

CHEMICAL STRING: COc1ccc(-c2nnc(C(=O)N3CCc4[nH]cnc4[C@H]3c3cc4cccc(C(F)(F)F)n4n3)o2)cn1
AC50: 1000 to 5000 nM

CHEMICAL STRING: O=C(c1cn(-c2ccccn2)nc1Cl)N1CCc2[nH]cnc2[C@@H]1c1cc2ccccn2n1
AC50: > 5000 nM

CHEMICAL STRING: O=C(c1nnc(-c2ccc(F)cc2F)o1)N1CCc2[nH]cnc2[C@@H]1c1cc2ccccn2n1
AC50: > 5000 nM

CHEMICAL STRING: O=C(c1nnc(-c2cnn(C(F)(F)F)c2)o1)N1CCc2[nH]cnc2[C@H]1c1cc2c(C(F)F)cccn2n1
AC50: < 500 nM

---

TARGET SYSTEM: human PAH with the R408W mutation (Homo sapiens, UniProt P00439, R408W)
Construct: expressed in transfected cells
METHOD: Cell Based Phenylalanine Flux Assay
EXPERIMENTAL CONDITIONS: A375 cells expressing human R408W PAH; 24 hrs compound incubation; 13C-Tyrosine by LC-MS; average where tested multiple times; read-out: AC50
PROPERTY NAME: AC50

CHEMICAL STRING: O=C(c1nnc(-c2ncccc2F)o1)N1CCc2[nH]cnc2[C@@H]1c1cc2cccc(C(F)F)n2n1
PROPERTY NAME: AC50
TEST VALUE: > 5 µM

CHEMICAL STRING: Cc1nc(C(C)(C)F)oc1C(=O)N1CCc2[nH]cnc2[C@H]1c1cc2c(C(F)(F)F)cccn2n1
PROPERTY NAME: AC50
TEST VALUE: < 0.5 µM

CHEMICAL STRING: Cc1ncccc1-c1nnc(C(=O)N2CCc3[nH]cnc3[C@@H]2c2cc3cccc(C)n3n2)o1
PROPERTY NAME: AC50
TEST VALUE: 1 to 5 µM

CHEMICAL STRING: Cn1cc(-c2nnc(C(=O)N3CCc4[nH]cnc4[C@H]3c3cc4ccc(Cl)cn4n3)o2)cn1
PROPERTY NAME: AC50
TEST VALUE: < 0.5 µM

CHEMICAL STRING: O=C(c1nnc(-c2cnn(C(F)F)c2)o1)N1CCc2[nH]cnc2[C@@H]1c1cc2c(C(F)(F)F)cccn2n1
PROPERTY NAME: AC50
TEST VALUE: > 5 µM

CHEMICAL STRING: CC(C)(F)c1nc(C(F)F)c(C(=O)N2CCc3[nH]cnc3[C@H]2c2cc3ccccn3n2)o1
PROPERTY NAME: AC50
TEST VALUE: < 0.5 µM

CHEMICAL STRING: Cn1ccc(-c2ccc3c(C(=O)N4CCc5[nH]cnc5[C@H]4c4cc5c(C(F)(F)F)cccn5n4)cnn3c2)n1
PROPERTY NAME: AC50
TEST VALUE: < 0.5 µM

---

Measured AC50 accompanies every entry in the list below.
TARGET SYSTEM: human PAH with the R408W mutation (Homo sapiens, UniProt P00439, R408W)
Construct: expressed in transfected cells
METHOD: Cell Based Phenylalanine Flux Assay
EXPERIMENTAL CONDITIONS: A375 cells expressing human R408W PAH; 24 hrs compound incubation; 13C-Tyrosine by LC-MS; average where tested multiple times; read-out: AC50

CHEMICAL STRING: Cc1cccc2cc([C@@H]3c4nc[nH]c4CCN3C(=O)c3oc(C(C)(C)O)nc3C(F)F)nn12
AC50: < 500 nM
//
CHEMICAL STRING: Cc1cccc(-c2nnc(C(=O)N3CCc4[nH]cnc4[C@@H]3c3cc4cccc(F)n4n3)o2)n1
AC50: 1000 to 5000 nM
//
CHEMICAL STRING: Cc1cccn2nc([C@H]3c4nc[nH]c4CCN3C(=O)c3cnn4cc(-c5ccn(C)n5)ccc34)cc12
AC50: > 5000 nM
//
CHEMICAL STRING: O=C(c1nnc(-c2ccccn2)o1)N1CCc2[nH]cnc2[C@H]1c1cc2ccccn2n1
AC50: 500 to 1000 nM
//
CHEMICAL STRING: O=C(c1ocnc1C(F)(F)F)N1CCc2[nH]cnc2[C@H]1c1cc2c(F)cccn2n1
AC50: < 500 nM
//
CHEMICAL STRING: Cc1ncccc1-c1nnc(C(=O)N2CCc3[nH]cnc3[C@@H]2c2cc3cccc(C(F)F)n3n2)o1
AC50: > 5000 nM
//
CHEMICAL STRING: O=C(c1nnc(-c2ncccc2F)o1)N1CCc2[nH]cnc2[C@H]1c1cc2cccc(C(F)F)n2n1
AC50: < 500 nM
//
CHEMICAL STRING: Cn1nc(Cl)nc1C(=O)N1CCc2[nH]cnc2[C@H]1c1cc2ccccn2n1
AC50: < 500 nM
//
CHEMICAL STRING: Cc1cccc(-c2nnc(C(=O)N3CCc4[nH]cnc4[C@@H]3c3cc4cccc(Cl)n4n3)o2)n1
AC50: 1000 to 5000 nM

---

TARGET SYSTEM: human PAH with the R408W mutation (Homo sapiens, UniProt P00439, R408W)
Construct: expressed in transfected cells
Sequence (P00439 1-452 R408W): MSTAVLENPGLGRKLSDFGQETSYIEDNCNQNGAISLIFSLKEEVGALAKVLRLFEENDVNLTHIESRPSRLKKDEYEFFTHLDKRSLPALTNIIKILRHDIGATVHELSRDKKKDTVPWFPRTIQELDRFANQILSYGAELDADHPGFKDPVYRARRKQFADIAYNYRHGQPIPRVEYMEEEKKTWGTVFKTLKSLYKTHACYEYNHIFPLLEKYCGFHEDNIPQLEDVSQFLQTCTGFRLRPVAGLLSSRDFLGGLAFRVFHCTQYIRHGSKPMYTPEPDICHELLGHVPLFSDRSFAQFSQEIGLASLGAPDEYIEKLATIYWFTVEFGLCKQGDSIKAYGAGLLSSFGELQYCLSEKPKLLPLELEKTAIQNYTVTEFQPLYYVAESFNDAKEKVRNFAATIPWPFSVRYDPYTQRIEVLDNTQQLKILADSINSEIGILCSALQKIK
METHOD: Cell Based Phenylalanine Flux Assay;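 also: after compound treatment, cells received sepiapterin plus isotope-labelled Phenylalanine for 4 hours, then labelled Tyrosine in the medium was quantified, 10-point 2-fold dilution series run in duplicate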
EXPERIMENTAL CONDITIONS: A375 cells expressing human PAH R408W; 24 hrs compound incubation; 13C-Tyrosine by LC-MS; average where tested multiple times; read-out: AC50

CHEMICAL STRING: Cn1nc(C(F)F)nc1C(=O)N1CCc2[nH]cnc2[C@H]1c1cc2cc(C(F)(F)F)ccn2n1
TARGET SYSTEM: human PAH with the R408W mutation (Homo sapiens, UniProt P00439, R408W)
AC50: 500 to 1000 nM

CHEMICAL STRING: O=C(c1cnn2cc(-c3ccccn3)ccc12)N1CCc2[nH]cnc2[C@H]1c1cc2cccc(C(F)(F)F)n2n1
TARGET SYSTEM: human PAH with the R408W mutation (Homo sapiens, UniProt P00439, R408W)
AC50: 1000 to 5000 nM

CHEMICAL STRING: Fc1cccn2nc([C@@H]3c4nc[nH]c4CCN3c3nnc(C4CC4)o3)cc12
TARGET SYSTEM: human PAH with the R408W mutation (Homo sapiens, UniProt P00439, R408W)
AC50: 1000 to 5000 nM

CHEMICAL STRING: Cc1cccc2cc([C@H]3c4nc[nH]c4CCN3c3nnc(-c4cccnc4F)o3)nn12
TARGET SYSTEM: human PAH with the R408W mutation (Homo sapiens, UniProt P00439, R408W)
AC50: > 5000 nM

CHEMICAL STRING: Cc1cccn2nc([C@@H]3c4nc[nH]c4CCN3c3nnc(C(C)C)o3)cc12
TARGET SYSTEM: human PAH with the R408W mutation (Homo sapiens, UniProt P00439, R408W)
AC50: < 500 nM

CHEMICAL STRING: c1cc(C2CC2)c2cc([C@@H]3c4nc[nH]c4CCN3c3cnccn3)nn2c1
TARGET SYSTEM: human PAH with the R408W mutation (Homo sapiens, UniProt P00439, R408W)
AC50: < 500 nM

CHEMICAL STRING: FC(F)(F)c1cnc(N2CCc3[nH]cnc3[C@H]2c2cc3cccc(C(F)(F)F)n3n2)nc1
TARGET SYSTEM: human PAH with the R408W mutation (Homo sapiens, UniProt P00439, R408W)
AC50: 500 to 1000 nM

CHEMICAL STRING: FC(F)(F)c1ccc(N2CCc3[nH]cnc3[C@@H]2c2cc3c(C4CC4)cccn3n2)nc1
TARGET SYSTEM: human PAH with the R408W mutation (Homo sapiens, UniProt P00439, R408W)
AC50: > 5000 nM

CHEMICAL STRING: Cc1nnc(N2CCc3[nH]cnc3[C@H]2c2cc3c(Cl)cccn3n2)o1
TARGET SYSTEM: human PAH with the R408W mutation (Homo sapiens, UniProt P00439, R408W)
AC50: 1000 to 5000 nM

CHEMICAL STRING: CC(C)c1cccn2nc([C@H]3c4nc[nH]c4CCN3c3nnc(-c4ncccc4F)o3)cc12
TARGET SYSTEM: human PAH with the R408W mutation (Homo sapiens, UniProt P00439, R408W)
AC50: > 5000 nM
